# Tested on: P-gp (MDR1)
# assay.notes: MDR1-MDCK Efflux Ratio Assay
# Type: in vitro ADME
# experimental.setup: dog, MDCK-MDR1, pH 7.4, MDR1-MDCK cells, 2 hr, pH 7.4; read-out: MDR1-MDCK Efflux Ratio (B-A/A-B)
Values of efflux ratio at 2 h strictly less than 5 map to YES, and values of at least 5 map to NO.

compound: COc1cc(O[C@H]2C[C@@H](C)N(Cc3cnc(NC(C)=O)s3)C2)ncn1 [Example 1-40]
answer.label: NO
//
compound: CC(=O)Nc1ncc(CN2C[C@H](Oc3ncc(C)nc3C)C[C@@H]2C)s1 [Example 1-81]
answer.label: NO
//
compound: COc1cncc(O[C@@H]2C[C@H](C)N(Cc3sc(NC(C)=O)nc3F)C2)n1 [Example 1-88]
answer.label: YES

Determine whether this compound shows efflux ratio at 2 h lower than 5 (ties excluded): COc1cc(O[C@@H]2C[C@H](C)N(Cc3cnc(NC(C)=O)s3)C2)ncn1 [Example 1-1]
YES

---

# Test system: P-gp (MDR1)
# assay.notes: MDR1-MDCK Efflux Ratio Assay
# Type: in vitro ADME
# experimental.setup: dog, MDCK-MDR1, pH 7.4, MDR1-MDCK cells, 2 hr, pH 7.4; read-out: MDR1-MDCK Efflux Ratio (B-A/A-B)
# Description: MDR1-MDCK cell monolayers were grown to confluence on microporous polyester membranes in 96-well Corning insert plates. The permeability assay buffer was Hanks' Balanced Salt Solution containing 10 mM HEPES at pH of 7.4. Loperamide (1 μM) was used as a positive control P-gp substrate. Propranolol and Bestatin (1 μM) were used as high and low permeability comparators, respectively. […] Test and control compound concentrations were determined using LC-MS/MS analysis. […]
Values of efflux ratio at 2 h strictly less than 8 map to t, and values of at least 8 map to f.

mol: CC(=O)Nc1nc(F)c(CN2C[C@H](Oc3cc(N4CCOCC4)ncn3)C[C@@H]2C)s1
answer.label: f

mol: CC(=O)Nc1nc(F)c(CN2C[C@H](Oc3ncc(C)nc3C)C[C@@H]2C)s1
answer.label: t

mol: COc1cccc(O[C@@H]2C[C@H](C)N(Cc3sc(NC(C)=O)nc3F)C2)n1
answer.label: t

mol: CC(=O)Nc1ncc(CN2C[C@H](Oc3cc(NC(C)C)ncn3)C[C@@H]2C)s1
answer.label: f

mol: COc1cc(O[C@@H]2CCCN(Cc3cnc(NC(C)=O)s3)C2)ncn1
answer.label: t

Determine whether this compound shows efflux ratio at 2 h lower than 8 (ties excluded): COc1cnc(O[C@@H]2C[C@H](C)N(Cc3sc(NC(C)=O)nc3F)C2)nc1
f

Determine whether this compound shows efflux ratio at 2 h lower than 8 (ties excluded): COCCOc1cc(O[C@@H]2C[C@H](C)N(Cc3sc(NC(C)=O)nc3F)C2)ncn1
t

Determine whether this compound shows efflux ratio at 2 h lower than 8 (ties excluded): CCNc1cc(O[C@@H]2C[C@H](C)N(Cc3cnc(NC(C)=O)s3)C2)ncn1
f

Determine whether this compound shows efflux ratio at 2 h lower than 8 (ties excluded): CC(=O)Nc1ncc(CN2CC[C@@H](Oc3cc(C)nc(C)c3)C2)s1
f

Determine whether this compound shows efflux ratio at 2 h lower than 8 (ties excluded): COc1nccc(O[C@@H]2C[C@H](C)N(Cc3sc(NC(C)=O)nc3F)C2)n1
f
